Molecular target: T1, human amylin-3 (a) receptor (human, UniProt P30988 25-474; O60896 24-148)
T1 sequence (looked up) 1: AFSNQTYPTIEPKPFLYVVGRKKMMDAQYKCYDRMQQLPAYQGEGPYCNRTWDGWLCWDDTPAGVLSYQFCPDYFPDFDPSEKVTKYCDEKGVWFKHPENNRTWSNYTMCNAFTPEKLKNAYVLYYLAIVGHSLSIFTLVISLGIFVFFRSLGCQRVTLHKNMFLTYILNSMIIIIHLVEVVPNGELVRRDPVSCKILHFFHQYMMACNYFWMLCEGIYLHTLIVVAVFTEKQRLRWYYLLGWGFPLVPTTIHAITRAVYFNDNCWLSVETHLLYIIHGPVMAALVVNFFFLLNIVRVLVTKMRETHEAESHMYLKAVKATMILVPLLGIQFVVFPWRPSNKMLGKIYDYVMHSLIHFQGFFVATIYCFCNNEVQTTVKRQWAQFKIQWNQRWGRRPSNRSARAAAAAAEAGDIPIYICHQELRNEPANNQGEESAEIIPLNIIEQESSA
T1 sequence (looked up) 2: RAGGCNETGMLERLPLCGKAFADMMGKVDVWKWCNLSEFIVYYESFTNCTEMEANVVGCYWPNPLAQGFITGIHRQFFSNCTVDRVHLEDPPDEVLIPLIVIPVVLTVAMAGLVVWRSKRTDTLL
Test: cell-based or functional assay
Starred links: 1 amine or outer side, 2 acyl side, 3 side chain; linkers in the order of their positions; H or OH if unused. Non-standard residues stand in square brackets, D forms with d. Groups on a side chain read outwards from the residue. *: point of attachment. C20 diacid = O=C(O)CCCCCCCCCCCCCCCCCCC(=O)*; C18 diacid = O=C(O)CCCCCCCCCCCCCCCCC(=O)*; C16 diacid = O=C(O)CCCCCCCCCCCCCCC(=O)*; γGlu = O=C(O)[C@H](CCC(=O)[*:2])N[*:1]; εLys = N[C@@H](CCCCN[*:1])C(=O)[*:2]; Trx = NC[C@H]1CC[C@H](C(=O)O)CC1; AEEA = NCCOCCOCC(=O)O; Aib = CC(C)(N)C(=O)O
Parameter: Human AmyR3 potency [EC50 (pM)]. Scope: all listed entries.
readout: Human AmyR3 potency [EC50 (pM)]

binder	readout	value.observed
Compound 0528 (peptide) peptide: H[Aib]EGTFTSDVSK([AEEA-AEEA-γGlu-C16 diacid])YLEEQAAREFIAWLVRGRK([AEEA-AEEA-γGlu-C16 diacid])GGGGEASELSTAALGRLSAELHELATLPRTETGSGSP-NH2	Human AmyR3 potency [EC50 (pM)]	22
Compound 0267 (peptide) peptide: HWEGTFTSDVSSYLEEQAAREFIEWLVRGK([AEEA-AEEA-γGlu-Trx-C20 diacid])GEASELSTAALGRLSAELHELATLPRTETGSGSP-NH2	Human AmyR3 potency [EC50 (pM)]	45.3
Compound 0157 (peptide) peptide: H[Aib]EGTFTSDVSSYLEGQAAK([AEEA-AEEA-γGlu-C20 diacid])EFIAWLVRGRGQAPGQEPEASELSTAALGRLSAELHELATLPRTETGSGSP-NH2	Human AmyR3 potency [EC50 (pM)]	18.4
Compound 0656 (peptide) peptide: H[Aib]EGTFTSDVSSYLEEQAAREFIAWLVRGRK([εLys-εLys-γGlu-C18 diacid])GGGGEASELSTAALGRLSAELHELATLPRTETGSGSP-NH2	Human AmyR3 potency [EC50 (pM)]	13.3
Compound 0101 (Lys21 and Lys30 each (10-(4-carboxyphenoxy)decanoyl-gGlu-Ado-Ado); C-terminal amide) peptide: HWEGTFTSDVSSYLEEQAARKFIEWLVRGKGEGGGGGGGGGEASELSTAALGRLSAELHELATLPRTETGSGSP	Human AmyR3 potency [EC50 (pM)]	10.2
Compound 0085 (peptide) peptide: H[Aib]EGTFTSDVSSYLEGQAAREFIAWLVRGRGQEPGQAPK([AEEA-AEEA-γGlu-C18 diacid])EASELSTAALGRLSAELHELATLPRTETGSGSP-NH2	Human AmyR3 potency [EC50 (pM)]	55.8
Compound 0120 (peptide) peptide: H[Aib]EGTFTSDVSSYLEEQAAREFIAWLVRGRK([AEEA-AEEA-γGlu-Trx-C20 diacid])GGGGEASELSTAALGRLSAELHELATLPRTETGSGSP-NH2	Human AmyR3 potency [EC50 (pM)]	10.6
Compound 0503 (peptide) peptide: H[Aib]EGTFTSDVSSYLEEQAAREFIEWLVRGRK([AEEA-AEEA-γGlu-Trx-C20 diacid])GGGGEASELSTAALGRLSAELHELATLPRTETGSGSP-NH2	Human AmyR3 potency [EC50 (pM)]	7.7
